# measured target: p-EGFR L858R (BaF3-L858R cells) (Homo sapiens, UniProt P00533, L858R)
# Sequence (P00533 25-1210 L858R): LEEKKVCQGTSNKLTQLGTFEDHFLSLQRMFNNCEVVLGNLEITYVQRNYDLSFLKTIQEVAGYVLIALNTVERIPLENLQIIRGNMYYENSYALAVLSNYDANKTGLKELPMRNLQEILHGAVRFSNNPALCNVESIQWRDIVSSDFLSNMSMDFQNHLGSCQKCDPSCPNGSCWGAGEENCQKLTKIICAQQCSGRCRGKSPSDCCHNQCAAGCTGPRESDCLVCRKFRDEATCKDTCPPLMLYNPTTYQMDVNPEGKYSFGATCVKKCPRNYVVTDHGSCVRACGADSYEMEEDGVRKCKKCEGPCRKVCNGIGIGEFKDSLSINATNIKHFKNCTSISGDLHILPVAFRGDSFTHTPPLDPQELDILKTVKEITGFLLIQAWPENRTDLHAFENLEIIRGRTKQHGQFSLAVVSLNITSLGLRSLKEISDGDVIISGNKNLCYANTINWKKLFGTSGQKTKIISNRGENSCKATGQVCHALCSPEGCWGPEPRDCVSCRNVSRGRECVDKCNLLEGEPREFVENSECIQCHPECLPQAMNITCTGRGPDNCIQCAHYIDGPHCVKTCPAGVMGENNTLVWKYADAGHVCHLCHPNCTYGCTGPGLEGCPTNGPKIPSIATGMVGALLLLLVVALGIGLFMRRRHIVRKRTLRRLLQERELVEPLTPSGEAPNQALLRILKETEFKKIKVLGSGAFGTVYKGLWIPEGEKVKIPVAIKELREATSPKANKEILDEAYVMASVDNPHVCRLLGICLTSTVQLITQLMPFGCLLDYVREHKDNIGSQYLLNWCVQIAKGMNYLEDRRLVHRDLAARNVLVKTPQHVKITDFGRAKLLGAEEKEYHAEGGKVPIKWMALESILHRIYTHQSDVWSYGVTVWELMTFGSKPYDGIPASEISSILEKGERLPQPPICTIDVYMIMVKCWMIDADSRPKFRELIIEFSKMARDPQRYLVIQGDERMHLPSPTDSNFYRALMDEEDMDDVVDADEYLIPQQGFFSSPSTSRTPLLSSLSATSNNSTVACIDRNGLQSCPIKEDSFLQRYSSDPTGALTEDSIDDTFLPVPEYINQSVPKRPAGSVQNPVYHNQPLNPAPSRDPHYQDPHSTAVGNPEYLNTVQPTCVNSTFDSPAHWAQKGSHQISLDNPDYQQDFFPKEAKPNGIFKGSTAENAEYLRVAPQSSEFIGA
# test name: Cell p-EGFR inhibition assay, HTRF, BaF3-L858R cells
# measurement conditions: 16 h treatment, pEGFR inhibition
pIC50: −log10 of the molar value.
measure name: pIC50

# compound, measured target, pIC50
measured = [
    ("Cc1cc2cc(n1)-c1cnn(C)c1OC[C@H]1CCC(C1)CN1/C(=N/C2=O)Nc2ccc(N3CCN([C@@H]4CCN(c5ccc(OC6CCC(=O)NC6=O)cc5F)C[C@@H]4F)CC3)cc21 (stereo partly shown)", "p-EGFR L858R (BaF3-L858R cells) (Homo sapiens, UniProt P00533, L858R)", 8.41),
    ("Cc1cc2cc(n1)-c1cnn(C)c1OC[C@H]1CC[C@H](C1)CN1/C(=N/C2=O)Nc2ccc(N3CCN(C4CCN(c5ccc(NC6CCC(=O)NC6=O)cc5F)CC4)CC3)cc21 (stereo partly shown)", "p-EGFR L858R (BaF3-L858R cells) (Homo sapiens, UniProt P00533, L858R)", 8.15),
    ("COC[C@H]1CN(c2ccc3c(c2)N2C[C@@H]4CC[C@H](COc5c(c(C)nn5CCO)-c5cc(cc(C)n5)C(=O)/N=C/2N3)C4)CCN1C1CCN(c2cc(F)c([C@H]3CCC(=O)NC3=O)c(F)c2)CC1", "p-EGFR L858R (BaF3-L858R cells) (Homo sapiens, UniProt P00533, L858R)", 8.32),
    ("COC[C@@H]1CN(c2ccc3c(c2)N2CC4CC[C@H](COc5c(cnn5C)-c5cc(cc(C)n5)C(=O)/N=C/2N3)C4)CCN1C1CCN(c2cc(F)c(C3CCC(=O)NC3=O)nc2C)CC1 (stereo partly shown)", "p-EGFR L858R (BaF3-L858R cells) (Homo sapiens, UniProt P00533, L858R)", 7.96),
]

[1] Cc1cc2cc(n1)-c1cnn(C)c1OC[C@H]1CCC(C1)CN1/C(=N/C2=O)Nc2ccc(N3CCC(CN4CC(Nc5cc(F)c([C@H]6CCC(=O)NC6=O)c(F)c5)C4)CC3)cc21
[2] COC[C@@H]1CN(c2cc3c(cc2OC)N/C2=N\C(=O)c4cc(C)nc(c4)-c4c(C)nn(C)c4OC[C@H]4CC[C@H](C4)CN23)CCN1C1CCN(c2cc(F)c([C@H]3CCC(=O)NC3=O)c(F)c2)CC1
Exercise: Which item exceeds the other in pIC50, 1 or 2 ? Please indicate the selected item by its label.
Solution: 2
